Target: BRD4 (BD1+BD2) bromodomain (Homo sapiens (Human))
Experiment: BRD4 binding inhibition (AlphaScreen, GST-BRD4 vs tetraacetylated histone H4 peptide)
Conditions: GST-BRD4 (BD1+BD2) / biotinylated acetyl-histone H4 (Lys5,8,12,16) peptide; read-out: IC50, BRD4 binding inhibition
// reported IC50 per item

Worked cases, answers included:
{"compound": "CCCn1c(-c2ccc3c(c2)nc(NCCCCNC(=O)CC(C)C)c2nnc(C)n23)nc2ccccc21", "IC50": "≤ 10 nM"}
{"compound": "Cc1nnc2c(NCCCCNC(=O)C(C)(C)C)nc3cc(NC(=O)C(C)C)ccc3n12", "IC50": "≤ 50 nM"}

Qu. Lookup: IC50 / BRD4 (BD1+BD2) bromodomain (Homo sapiens (Human)) / "COc1cc(C)c2nc(NCCCCNC(=O)OC(C)C)c3nnc(C)n3c2c1"
Ans. ≤ 10 nM

Qu. Lookup: IC50 / BRD4 (BD1+BD2) bromodomain (Homo sapiens (Human)) / "Cc1nnc2c(NCCCCNC(=O)CC(C)C)nc3cc(OCCN4CCOCC4)ccc3n12"
Ans. ≤ 50 nM

Qu. Lookup: IC50 / BRD4 (BD1+BD2) bromodomain (Homo sapiens (Human)) / "Cc1nnc2c(NCCCCNC(=O)[C@@H](O)C(C)C)nc3ccccc3n12"
Ans. ≤ 10 nM

Qu. Lookup: IC50 / BRD4 (BD1+BD2) bromodomain (Homo sapiens (Human)) / "Cc1nnc2c(NCCCCNC(=O)[C@H](O)C(C)C)nc3ccccc3n12"
Ans. ≤ 50 nM

Qu. Lookup: IC50 / BRD4 (BD1+BD2) bromodomain (Homo sapiens (Human)) / "Cc1nnc2c(NCCCCNC(=O)[C@@H](NC(=O)C(C)(C)C)C(C)C)nc3cc(N4C[C@@H](C)O[C@@H](C)C4)ccc3n12"
Ans. ≤ 50 nM
